- experimental.target: sCoV2-RBD (Fc-tagged RBD of SARS-CoV-2 S protein) (SARS-CoV-2; human, UniProt P0DTC2 319-541)
- assay.summary: BLI (Octet) blocking of ACE2 binding to captured sCoV2-RBD
Property: IC50; scope: individual binders

{"binder": "CoV2-19 (antibody, V domains shown) VH: QVQLVQSGAEMKKPGASVKVSCKTSGYTFTNSYIHWVRQAPGQGLEWMGWINPISGGTNYAQKFQGRVTMTRDTSINTAYMELSRLRSDDTAVYYCARDRGDYDYGWGTSPFYFDYWGQGTLVTVSS VL: AIQLTQSPSSLSASVGDRVTITCRTSHTVNSYLNWYQQEPGKAPKLLIYAASNLQSGVPSRFSGSGSGTDFSLTIHNLQPEDFATYYCQQSYRTPLTFGQGTKVDIK", "IC50 / mg/L": 14.5}
{"binder": "CoV2-18 (antibody, V domains shown) VH: QVQLVQSGAEVKKPGSSVKVSCKASGGTFSNYGISWVRQAPGQGLEWMGGIIPIFGTANYAQKFQGRVTITADKSTRTAYMELSSLRFEDTAVYYCARDRDDALTGLGLGGGFDIWGQGTMVTVSS VL: QAVVTQPPSASGTPGQRVTISCSGSTSNIGTNTANWYQHLPGTAPKLLIYGNDRRPSGVPDRFSGSKSVTSASLAISGLQSEDEADYYCAAWDERLNGYVFGTGTKLTVL", "IC50 / mg/L": 6.03}
{"binder": "CoV2-13 (antibody, V domains shown) VH: QVQLQQSGAEVKKPGSSVKVSCKASGGNFRSHTFSWVRQAPGQGLEWMGEIMPRFGATNYAQKFQGRVTITADESTGTTYMELSSLKSHDTAVYFCAADLGSGRKFDSWAQGTLVSVSS VL: NIQMTQSPSSLSASVGDRVTITCRASQGIGSDLGWYQQRPGKAPKRLIYAASSLQSGVPSRFSGSGSGTEFTLTISSLQPEDFATYYCLQHNSYPLTFGQGTKVEIK", "IC50 / mg/L": 2.29}
